TEST_NAME: growth suppression of PTEN-deleted HCT116, pilot screen, cell-based, HCT116 clonal line, CellTiter-Glo (AID 824);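 further: 0% = 20 µM Hyamine control and 100% = vehicle cell control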
EXPERIMENTAL_CONTEXT: 60 h, at 10 µM, hits give low values
Results filed as inconclusive are left out.
We begin with a simple list: items and their reported viability.
Your answer should be a plain number; it is taken to be in %.

Before answering, review these 5 worked examples.
{"columns": ["COMPOUND", "viability / %"],
 "data": [
  ["C=CCn1cc(C(=O)NCc2cccnc2)c(=O)c2cc(S(=O)(=O)N(CC)CC)ccc21", 97],
  ["O=C(NCc1ccc(Cl)c(Cl)c1)c1cccnc1", 90.9],
  ["Cc1ccc(NS(=O)(=O)c2cc(C(=O)O)ccc2Cl)cc1", 95.2],
  ["CC1CC(C)(C)Nc2ccc(OC(=O)c3ccco3)cc21 (stereo not drawn)", 1.59],
  ["CCn1c2ccccc2c2nnc(SCN3C(=O)c4ccccc4C3=O)nc21", 100]
]}

Qu. Specify measured viability for O=C(CN1CCOc2ccccc21)NC1CCN(Cc2ccccc2)CC1 .
Ans. 85.5

Qu. Specify measured viability for CCCOc1ccc2ccccc2c1/C=N/n1c(C)nnc1-n1nc(C)cc1C .
Ans. 19.6

Qu. Specify measured viability for CC(=O)c1c(C)[nH]c(C(=O)N2CCN(c3ncccn3)CC2)c1C .
Ans. 96.6

Qu. Specify measured viability for CCCC(=O)NCCCc1nc2ccccc2[nH]1 .
Ans. 100

Qu. Specify measured viability for C=CCn1c(CSc2nc3ccccc3s2)nnc1SCC(=O)NCc1ccco1 .
Ans. 90.4

Qu. Specify measured viability for C=CCNc1nc2c(c(=O)n(C)c(=O)n2C)n1CC(=C)C .
Ans. 91.8

Qu. Specify measured viability for CN(C)c1nc(-c2ccccc2)c2cnn(Cc3ccccc3)c2n1 .
Ans. 75.9

Qu. Specify measured viability for COc1cc(C(=O)Nc2ccc(S(=O)(=O)Nc3onc(C)c3C)cc2)cc(OC)c1OC .
Ans. 105

Qu. Specify measured viability for CCN(CC)CCCNC(=O)Cn1ncc2c(=O)oc3ccc(C)cc3c21 .
Ans. 92.3

Qu. Specify measured viability for COc1ccc(CNC(=O)C2CCN(S(=O)(=O)c3cccc4cccnc34)CC2)cc1 .
Ans. 92.2

Qu. Specify measured viability for C=CCn1c(C)c(C(C)=O)c(SC)nc1=S .
Ans. 99.8

Qu. Specify measured viability for COc1ccc2cc(CCNC(=O)c3c(-c4ccccc4Cl)noc3C)c(=O)[nH]c2c1 .
Ans. 92.7

Qu. Specify measured viability for O=C1C2CC=C(Cl)CC2C(=O)N1CC1Cc2ccccc2CO1 (stereo not drawn) .
Ans. 101

Qu. Specify measured viability for CCCCS(=O)(=O)/C=C\C=C/S(=O)(=O)CCCC .
Ans. 1.36

Qu. Specify measured viability for CC(=O)c1c(NCc2ccccc2)nc(=O)n(-c2ccccc2)c1C .
Ans. 97

Qu. Specify measured viability for CCOC(=O)CSC1=C(C#N)C(c2ccc(C)s2)CC(=O)N1 (stereo not drawn) .
Ans. 16

Qu. Specify measured viability for COC(=O)c1nnn(Cc2ccccc2)c1N .
Ans. 98.8

Qu. Specify measured viability for OC(CNCc1ccco1)COc1ccccc1 (stereo not drawn) .
Ans. 103

Values compiled from PubChem BioAssay.
